# System: RAW-Dual (murine macrophage reporter line)
# Method Description: viability score (confluency relative to resting cells, overnight) (fraction); higher = more viable, active = viable (0.7 or more)
# Experimental Conditions: modulator concentration 10 µM
Value Kind: viability score

• COc1ccc(C=C(NC(=O)c2cc(OC)c(OC)c(OC)c2)C(=O)NC(C(=O)O)C(C)C)c(OC)c1 (stereo not given) = 1.02 (active)
• Cn1c(=O)[nH]c2nnc(-c3ccncc3)nc2c1=O = 1.02 (active)
• CC#CCn1c(N2CCCC(N)C2)nc2c1c(=O)n(Cc1nc(C)c3ccccc3n1)c(=O)n2C (stereo not given) = 0.988 (active)
• CCC(=O)Nc1ccc(S(=O)(=O)N2CCC(Oc3ncnc(CC)c3F)C2)c(C)c1 (stereo not given) = 0.992 (active)
• Brc1ccc(-c2cc(-c3ccccc3)nc(N3CCOCC3)n2)cc1 = 1.01 (active)

###

# Tested on: RAW-Dual (murine macrophage reporter line)
# Method Description: IRF reporter (Lucia luciferase) activity fold change vs agonist alone; higher = enhanced IRF activity
# Experimental Conditions: modulator concentration 10 µM; agonist: LPS 0.1 ug/mL
Value Kind: IRF reporter

* CCCC(C(=O)OCCN(CC)CC)(c1ccccc1)c1ccccc1.Cl | 1.03
* CN1CCN(C2=C(Cl)C(=O)N(c3ccc(Cl)c(Cl)c3)C2=O)CC1 | 1.54
* O=C(Nc1ccc(S(=O)(=O)Nc2ccc(F)cc2)cc1)C(F)(F)F | 1.37
* Cc1cc(OC2CN(C(=O)Cn3nnc4ccccc43)C2)cc(=O)n1C1CC1 | 0.99
* Cl.N=C(N)NCCC[C@H](N)C(=O)O | 1.38
* O=C1CCC(=O)N1CC(O)Cn1c2ccc(Cl)cc2c2cc(Cl)ccc21 (configuration not stated) | 1.24
* COc1ccc2cc1Oc1ccc(cc1)C[C@H]1c3c(cc4c(c3Oc3cc5c(cc3OC)CCN(C)[C@@H]5C2)OCO4)CCN1C | 0.931
* O=C(Nc1ccc(NS(=O)(=O)c2ccccc2)cc1)c1ccco1 | 0.818
* COc1c(Cl)cc(C(=O)Nc2cccc(NC(=O)c3ccco3)c2)cc1Cl | 1.1
* O=C1c2ccccc2-c2nc3ccccc3n21 | 1.05
* C=C1c2cccc(O)c2C(=O)C2=C(O)[C@]3(O)C(=O)C(C(N)=O)=C(O)[C@@H](N(C)C)[C@@H]3[C@@H](O)[C@H]12.Cl | 1.22
* COc1cc2c3cc1Oc1cc(ccc1O)OC1c4c(cc(OC)c(O)c4Oc4ccc(cc4)CC3N(C)CC2)CCN1C (configuration not stated) | 1.47
* CCOc1ccc(OCCCCOc2cccc(C)c2)cc1 | 1.27
* CCN1CCN(CC(O)COc2ccc(C(C)(C)C)cc2C(C)(C)C)CC1.Cl.Cl (configuration not stated) | 1.24
* CNCCC(Oc1ccc(C(F)(F)F)cc1)c1ccccc1.Cl (configuration not stated) | 0.972
* CN(C)CCN(Cc1ccccc1)c1ccccn1.Cl | 0.954
* O=C(Nc1ccc(S(=O)(=O)N2CCOCC2)cc1)c1ccc(Br)s1 | 1.05
* c1cnn(-c2ccc(N=Nc3ccc(-n4cccn4)cc3)cc2)c1 | 1.09
* Cc1ccc(-c2cc(-c3ccccc3)nc(N3CCOCC3)n2)cc1 | 1.05
* CC(C)(C)NCC(=O)Nc1ccc(S(N)(=O)=O)cc1 | 1.52
* O=C1NC(=O)C(=Cc2ccc(F)cc2)S1 | 1.02
* COC(CNS(=O)(=O)c1cccnc1)c1ccc(C)s1 (configuration not stated) | 1.02
